meta.source: ChEMBL document CHEMBL5058577

System: HEK-293T
Assay: Multiplex assay against HEK293T
Type: toxicity, cell-based
Conditions: human, 12 h, 10 µM, compound concentration 10 uM, replicate 2
MEASURED_PARAMETER: Population Healthy Nuclei (%)
One number for each entry, in %.

I need Population Healthy Nuclei (%) for every entry listed below, if you could help.
1. O=C(NCCO)c1cccc(-c2cc(Nc3ccc(OC(F)(F)F)cc3)ncn2)c1
2. Cc1ccc(-c2ccc(F)cc2COc2ccc(CCC(=O)O)cc2)cc1

Result:
1. 73
2. 83

----------
System: U2OS
Assay: Multiplex assay against U2OS
Assay type: toxicity, cell-based
Conditions: human, 48 h, 1 µM, compound concentration 1 uM, replicate 1
MEASURED_PARAMETER: Population Healthy Nuclei (%)

Check out these entries, answers already filled in.
{"columns": ["MOLECULE", "TEST_RESULT"],
 "data": [
  ["CC[C@H]1OC(=O)[C@H](C)[C@@H](O[C@H]2C[C@@](C)(OC)[C@@H](O)[C@H](C)O2)[C@H](C)[C@@H](O[C@@H]2O[C@H](C)C[C@H](N(C)C)[C@H]2O)[C@@]2(C)CC(C)=C(O2)[C@H](C)[C@@H](O)[C@]1(C)O", "54%"],
  ["CCCn1c(=O)c2[nH]c(C3CCCC3)nc2n(CCC)c1=O", "69%"],
  ["O=C1COc2nccc(-c3ccccc3F)c2CN1Cc1cc(C(F)(F)F)cc(C(F)(F)F)c1", "74%"]
]}

I need Population Healthy Nuclei (%) for every entry listed below, if you could help.
1. Cc1nc2ccc(Oc3ccc(F)cc3)cc2c(=O)n1C[C@H]1CCCN(C(C)C)C1.Cl
2. C[C@@H]1C[C@H]2[C@@H]3CCC4=CC(=O)C=C[C@]4(C)[C@@]3(F)[C@@H](O)C[C@]2(C)[C@@]1(O)C(=O)CO [DEXAMETHASONE]

Result:
["69%", "72%"]

I need Population Healthy Nuclei (%) for every entry listed below, if you could help.
1. CC1(COc2ccc3c(c2)ncn3-c2ccc3cccc(N4CCC(N)CC4)c3n2)COC1 [CRENOLANIB]
2. CC(=O)NCCc1c(Cc2ccccc2)[nH]c2ccccc12 [LUZINDOLE]

Result:
["43%", "74%"]

----------
Tested on: U2OS
Assay: Multiplex assay against U2OS
Format: toxicity, cell-based
Conditions: human, 48 h, 10 µM, compound concentration 10 uM, replicate 1
Give Population Mitotic Cells (%) for every item shown.
Give bare numbers, in %.

Check out these entries, answers already filled in.
{"columns": ["COMPOUND", "TEST_RESULT"],
 "data": [
  ["CC[C@H]1OC(=O)[C@H](C)[C@@H](O[C@H]2C[C@@](C)(OC)[C@@H](O)[C@H](C)O2)[C@H](C)[C@@H](O[C@@H]2O[C@H](C)C[C@H](N(C)C)[C@H]2O)[C@@]2(C)CC(C)=C(O2)[C@H](C)[C@@H](O)[C@]1(C)O", 14],
  ["Cl.Clc1ccc2nsnc2c1NC1=NCCN1 [TIZANIDINE HYDROCHLORIDE]", 6],
  ["CC(=O)NCCc1c(Cc2ccccc2)[nH]c2ccccc12", 10],
  ["CCNC1(C(N)=O)CCN(c2ncnc3c2nc(-c2ccccc2Cl)n3-c2ccc(Cl)cc2)CC1", 13],
  ["N[C@@]1(C(=O)O)CO[C@H]2[C@H](C(=O)O)[C@H]21", 7]
]}

I need Population Mitotic Cells (%) for every entry listed below, if you could help.
1. COc1ccc2c(c1)C(C(=O)N(Cc1ccc(N(C)C)cc1)c1ccc(C(C)C)cc1)CCC2.Cl (stereo not drawn)
2. CC(C)(C)c1ccc(S(=O)(=O)Nc2ccc(Cl)cc2C(=O)c2cc[n+]([O-])cc2)cc1
3. O=S(=O)(c1ccccc1)c1cnc2c(N3CCNCC3)cccc2c1 [INTEPIRDINE]

Result:
26
20
22
